Values were extracted from patent US9139585B2.

- target.system: hROMK (hKir1.1) (Homo sapiens (Human))
- Sequence (P48048 whole entry): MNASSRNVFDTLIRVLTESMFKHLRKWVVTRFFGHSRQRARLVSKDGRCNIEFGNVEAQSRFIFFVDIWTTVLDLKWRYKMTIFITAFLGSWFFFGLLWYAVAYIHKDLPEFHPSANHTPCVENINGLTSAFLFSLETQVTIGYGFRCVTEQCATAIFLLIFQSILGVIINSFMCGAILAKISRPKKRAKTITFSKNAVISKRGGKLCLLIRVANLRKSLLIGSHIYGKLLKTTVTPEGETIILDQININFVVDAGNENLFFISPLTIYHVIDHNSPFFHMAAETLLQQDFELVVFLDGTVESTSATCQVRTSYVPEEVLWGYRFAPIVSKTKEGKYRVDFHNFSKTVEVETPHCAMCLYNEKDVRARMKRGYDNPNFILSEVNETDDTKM
- method.notes: Thallium Flux Assay (ROMK channel functional thallium flux, FLIPR-Tetra)
- Format: cell-based
- experimental.context: Thallium Flux Assay IC50
pIC50: −log10 of the molar value.
Label 1 (yes) when pIC50 >= 6; otherwise 0 (no).

Please review the entries below; each comes with its answer.
Cc1c([C@@H](O)CN2C[C@H]3CC[C@@H](C2)N3S(=O)(=O)c2ccc(-n3cnnn3)cc2)ccc2c1COC2=O [Example 16]
1 (yes)
Cc1c([C@@H](O)CN2C3COCC2CN(CCc2ccc4c(c2)C[C@@H](C)OC4=O)C3)ccc2c1COC2=O [Example 21]
1 (yes)
Cc1c([C@@H](O)CN2CCN(C[C@H](O)c3ccc4c(c3C)COC4=O)C3(CC3)C2)ccc2c1COC2=O [Example 4]
1 (yes)

Prompt line: Entry Cc1c([C@@H](O)CN2C3COCC2CN(CCc2ccc4c(c2)C[C@H](C)OC4=O)C3)ccc2c1COC2=O [Example 22] : is its pIC50 no less than 6?
Response line: 1 (yes)

Prompt line: Entry Cc1c([C@@H](O)CN2C3COCC2CN(CC(O)c2ccc4c(c2)C[C@@H](C)OC4=O)C3)ccc2c1COC2=O (single isomer, unassigned) [Example 24A] : is its pIC50 no less than 6?
Response line: 0 (no)
